Assay: soluble fraction after stress (log2 fold change); higher = more stays soluble; pooled small domains, quantitative proteomics;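 note: 20 min heating vs room temperature control held 20 min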
Conditions: stress: 75 degC
endpoint name: soluble fraction (log2)
Please respond with just the number, no unit label.

Here is how some sequences turned out for soluble fraction (log2).
HMQTTQQLIRNLRLKQAATLLADKRHSITEVATLTGFTHPTYFATAFREMFGVSPSEYMEQHI
-1.49
HMVSDTGAIEAIVAQVLADNPKLVEGYLATPEDKRGKAIGPFIGLTRKAAAGVNPQVVMDVLKKKLSEL
-0.27
HMVDDELTARRRVNLRRIADELGGAAAVARKTQKSVQQISSMLNGTKSFGSKIARDIEPKLGLPLQSLDKE
0.0147
HMTRTEYMAQLEKYLKKLPHKEFQEAITFFNEYFDEAGPEKETAIMEELGSPKEAASELITNILNRHI
-0.433
HMDENMQRYNTMEEIKKEFPYAEDTVRKLIAMGAIRGGGKVDANGDPADMDLSRDMLRMMVFNDRAGAYG
0.524

Ask: May I ask what soluble fraction (log2) has been recorded for HMKKYLNIYNIIVNKIESKEYQSNDKLPSEKELMDQYNVSRDTVRKSLNMLEQNGYIQKTKGKGSFVLDIN ?
Reply: -0.865

Ask: Same question, HMPELTASDEADLKALVGGDQGFEQMANWARSNLGEEEINRFDAVVDSNNKDAIHMAIQAMQARMNA this time
Reply: -0.107

Ask: Same question, HMVVLPGEVLRINVIQEGKEHGQGVGYMDDGTMVVIENGREFIGEYMEVNVTKVLQTAAGRMIFGRVD this time
Reply: -2.31

Ask: Same question, HMLVLAENMDVIFTRRTLDDHVVVDYKTTIGEMVKNDEIKGENMDELISAVEKDGYELVSSTSGEIIFLND this time
Reply: -1.01

* * *

In this section we review reported soluble fraction (log2) values for a set of sequences.
Experiment: soluble fraction after stress (log2 fold change); higher = more stays soluble; pooled small domains, quantitative proteomics
Details: stress: 75 degC

Here is how some sequences turned out for soluble fraction (log2).
HMDNWLSGLAVEADRMILTQPGEVFDRLSRAFEATLIRRALASTGGRRIEAAHLLGIGRNTITRKIQDLGL
-2.62
HMIVKQPDIRKQELLDIGVRLYFEAGEKGVSIQQVVKQAGVATGLFYYYFSSKDAFLDEALNDYID
0.0613
HMHQAADFAGFITFNKDGVEQFSFGKYKNQTVVSVLEKDPGYYSWIQNADFPLYTKKILTAIRLAM
-1.06
HMFMKNTEVALAIKGKFSNQTTITSKELVLFLSDLFPELSNKTIPWKINQLKAENLIYQTGRGIYTFN
-2.53
HMNLNIGNNIKNIRKSKNMTQTDFAELMGLSRSYIGDLENNRSNPSIKTLEAIARALDVPIVALIN
-0.528
HMGVGIEALAVEVDRIRQVLTGGGALSDIQLFSQLKALGEVKTALSSMTDPRARELEKRVAQLLEASLRT
-0.708
HMETYSGVERAAILVMYLERTLAKALLDHMNDEEVRRVGMAMASIDRVEGPDIERIVGDFVRELYEVS
-0.642

Ask: May I ask what soluble fraction (log2) has been recorded for HMAPDYYALLGVPRNATTAEVRKAFRGKALEQHPDRGGDEESFRLLSKAYDVLSDSERRKYYDRTG ?
Reply: -0.0151

* * *

Test: soluble fraction after stress (log2 fold change); higher = more stays soluble; pooled small domains, quantitative proteomics
Settings: stress: 75 degC
Kind request: treat -0.07 as inclusive, so soluble fraction (log2) at -0.07 or higher is class 1, anything lower is class 0.

Ask: Check if soluble fraction (log2) >= -0.07 (inclusive). Item: HMQATDEEIENFTSSAITAYKLTKEEGYIISMRDMKPIMEIVKTEYPMANGKVVSKVMNNYING
Reply: class 1

Ask: Same question, HMFPDLTEDEQLIVDVLQRTGDLQINSLIVEANIPVNKMSEILFELEMKGVIRTLAGGVYQLL this time
Reply: class 0

Ask: Same question, HMNVEVDSIGDDDFLVKVSAGTSTEHRVTLTDAYWEQIWSSSLPKKEIISLSFAFLLEREPNSSIMRT this time
Reply: class 1

Ask: Same question, HMGIQYVASGHYARMETDAQGVSRLFPPESGAPDESDRLAALSPEVLTRLILPLGDFAPEDVEEMAVD this time
Reply: class 0

Ask: Same question, HMTGVEAIERYLASGVIPGVGPVLAKRLVERFGARTLEVIEDSPRRLTQVPGIGRQKARQIHQALKAQRE this time
Reply: class 0

Ask: Same question, HMNSNKFANAAAVAVAEKPADSYNPLFIYGPSGVGKTHLLYAIANEIHKHHPDYNIVYIKGDQFTNELIN this time
Reply: class 1

Ask: Same question, HMLEVTQTDVKMYTTSGTPVYAAPDLNSAIVVYLERFVNVTVTGITDNGFYRVNLNGDYYIPGPYLISSV this time
Reply: class 0

Ask: Same question, HMKRITAVISQKKGRDYYYIIVSYYLSNGKRVQRWIKTEFPINGNNKRKLEQKRIEVLQEWQDKLV this time
Reply: class 0

* * *

Assay: soluble fraction after stress (log2 fold change); higher = more stays soluble; pooled small domains, quantitative proteomics
Details: stress: 75 degC
In this section we review reported soluble fraction (log2) values for a set of sequences.

Ask: May I ask what soluble fraction (log2) has been recorded for HMDNEIMYPIQINGKVRAELFVSTERAMDKQYVLEQAKANEKIQGYLEGNRLVKEIFVPKRIVNLVIAP ?
Reply: -0.576

Ask: Same question, HMTKGDRIKARREELGLTQTDLAEAISSTKQNIYKYENNIISNIPSDKVEAIAEVLKISPAYLMGWGDE this time
Reply: -0.0377

Ask: Same question, HMDEWFPVNDDYKFMVGDEVRTPDGLVKVVATHNDSATFYGKIITPIHDDVLKGETYEYRSYEAQVLA this time
Reply: -0.331

* * *

Assay: soluble fraction after stress (log2 fold change); higher = more stays soluble; pooled small domains, quantitative proteomics
Details: stress: 75 degC
In this section we review reported soluble fraction (log2) values for a set of sequences.
Please respond with just the number, no unit label.

Here is how some sequences turned out for soluble fraction (log2).
HMEKFTGELSQEEKNVLDALSHEEMHVDIIIKLTKLETSAVSSTLSLLEIKGLIKNIGGQNYIK
0.543
HMNSKQELAYQTIRARIVDGSYGPGYRIVIDEVARELGVSPIPVREAVRRLEAEGLITYTRHAGARVVA
-0.219
HMAKINFTSDAIDIGMVTRNDIEMLSFYQNVLGLTKDMEIPFPGLGVVNKLSFGSGFIKILVL
0.0804
HMSKLSVSSLSSPEVQNQLKAAGIDVNSRQYQVVMKDMMGALDGRAGYTTVSAIKNRMRQYNADGDY
0.687
HMGSVHDAATDRIREMILGGQFEPGERLRQDDLATSLGVSTMPVREALRQLQAEGLVVFYPRKGAVVAR
0.168
HMGGFNATTLQNIEELRRSLSDADQFGRHEVIETIGGSDSRAGKLLKKMLEAGIIEQVKGHGKGRYRFKRT
0.0983
HMKQPNFTVIETKILELLFQKDLSSREMQEILKISKDNLIFALQNLLEQEKIVLQTSNTYTVN
-1.88

Switching to the query record.
Ask: May I ask what soluble fraction (log2) has been recorded for HMDLPDTLSMPNALKVLEDNGFPTSKAKLYKMTSQEQIPFMKYGNKLVFSRKALIEWAHKQLV ?
Reply: -1.94

* * *

Experiment: soluble fraction after stress (log2 fold change); higher = more stays soluble; pooled small domains, quantitative proteomics
Details: stress: 75 degC
endpoint name: soluble fraction (log2)
Please respond with just the number, no unit label.

HMLAAGTSLTVDTESSNLNIRQEPSTEGVILGKAAKGEVVTLVEQSSDEWWKIKTKDGEEGYAYARYLR
0.175
HMDIYLDDINRKILHLLSQGVKTKSLRDYIDLSMSAIEKRKKHLKDLFLIEDGKDETLLSEARKKGF
-1.19
HMRGIPEEVADVAIQWVARLDSNEISDADRAAFFAWLDASPINRWAYNDISESWAKLSILNEMGH
-1.87

Ask: May I ask what soluble fraction (log2) has been recorded for HMSNPADDVVDLLRQLRLPHMRAAAPELLATAKAQRWDPAEAIRALLTEELAGRQASSINARRK ?
Reply: -0.477

* * *

Experiment: soluble fraction after stress (log2 fold change); higher = more stays soluble; pooled small domains, quantitative proteomics
Conditions: stress: 75 degC
In this section we review reported soluble fraction (log2) values for a set of sequences.
Please respond with just the number, no unit label.

HMSETEEWTVEGGQAGDRIDRHVAAMLGDDVSRSQVQQWIRAGRVTVNGRAVKPSDTVEEGDRVAVDLPEP
-0.189
HMGTTAWISTKTANGSVNIRTGPGTGYGVIGWALNGDKLEVLSRGTSWHYVKLVKNGKIGYVSASYVSFTQ
-3.41
HMREEIESVYKTLAVTEIPYIARGNSARLGSGIQTVYDFYRMEGMQVSKILGRNGSVLWLELHG
0.0223

Ask: May I ask what soluble fraction (log2) has been recorded for HMAIGDYYINASALNVRSGEGTNYRIIGALPQGQKVQVISENSGWSKINYNGQTGYIGTRYLSKTPV ?
Reply: -0.264

Ask: Same question, HMNFDVETGLPLDSRLVVSGLIQRDGINSLKRYEGMIVYVESEAKNYQLVGGISNTDWAELS this time
Reply: -1.35

Ask: Same question, HMSVLEHVSGNVRRLRLQAGLSQEALARAASVSRRMLVGIESGDVNVSLSTLDRIAAALGVLFPDLVQAP this time
Reply: -2.53

Ask: Same question, HMDGPGAGGRFLAEDLGTGKMTLEALQRHYVTLVYSRTGKYEETARRLEIDRRTVKKYLDEELLAELRET this time
Reply: 0.0914

Ask: Same question, HMQAPAFDYSKVQEGVTVNHKIFGDGTVSWIDKARKYIRVQFSVGEKMFTMETAFVQGFLSL this time
Reply: -1.19

Ask: Same question, HMGQKETIVDLLKTNGTMTQLALAEAIYGDKNHGPNIYSVLMGRVNSGAVLRTGSQPAYYSLSG this time
Reply: 0.209

Ask: Same question, HMKLKHANGNHPLTQQEKQNMIEEAAKHYGDYMTALGFDWKQDPNSSDTPMRVAKAFVNDLAEGVY this time
Reply: 0.0234

Ask: Same question, HMDIFLPDVKGYDLIPSFRRHLPDIDVIAMTGYNTRALESAVRQQDVLFYMIKPFEASQLKEILEHLVK this time
Reply: -0.16

Ask: Same question, HMSDNLTIVRAVYSGLSQRQAAATYHVSRNTVSLLLRHARNRGWLTLEDLAQLDNAAFSKSL this time
Reply: -4.32

Ask: Same question, HMVTDVDELEKLIQKVLDSNSSQVDEYRQGKEKVFGFFVGAVMKLTKGQADPDVVNQLLKEKLSGRK this time
Reply: -0.177

Ask: Same question, HMRTITYSITPAHAGMSVERYLKQQHGYSTRTLVKLKHYPQGLQLNGQHARTVDLLQAGDTLAVTFLD this time
Reply: -2.42

Ask: Same question, HMLHVRSALMSELDGIEGIGEKRKRLLFDAFITRDAIAAATLEQLMAVKGMNRPSAEAVHKHFHG this time
Reply: -0.985

Ask: Same question, HMSELDASYLGQRVRYVSGFTETDPSEGLVEFRGSNWRARAEHPPLDHSGHWVIVKVESNTLWVEEKSN this time
Reply: -1.57

Ask: Same question, HMDGASLLDIDGDGKVTPTIDGLLLMRWQFGTRGAALIGGISFPAGALRTTVNAIELHMRRLSETT this time
Reply: -0.699
